Measured melting point accompanies every entry in the list below.
Where a name gives a salt, the structure may show the parent alone.

Examples with answers:
COCCNCCc1ccc(Nc2ncc3c(n2)-c2ccccc2[C@H](c2ccc(F)c(F)c2)C3)cc1 (as salt: hydrochloride) [Example 86] = 85 to 87 °C
CN1CCN(CCc2ccc(Nc3ncc4c(n3)-c3ccccc3C(c3ccc(Cl)c(Cl)c3)C4)cc2)CC1 (stereo not drawn) = 119 to 121 °C

Reported melting point ( CN1CCN(CCc2ccc(Nc3ncc4c(n3)-c3ccccc3[C@H](c3ccc(F)c(F)c3)C4)cc2)CC1 (as salt: hydrochloride) ) = 90 to 92 °C

Reported melting point ( `CCCCN(C)CCc1ccc(Nc2ncc3c(n2)-c2ccccc2[C@H](c2ccc(F)cc2)C3)cc1` ) = 164 to 166 °C

Reported melting point ( CN(C)CCCNc1ncc2c(n1)-c1ccccc1C(c1cccc(Br)c1)C2 (stereo not drawn) ) = 120 to 122 °C

Reported melting point ( Brc1cccc([C@@H]2Cc3cnc(Nc4ccc(CCN5CCCCC5)cc4)nc3-c3ccccc32)c1 (as salt: hydrochloride) ) = 120 to 125 °C

Reported melting point ( COCCN(CCOC)CCc1ccc(Nc2ncc3c(n2)-c2ccccc2C(c2cccc(Br)c2)C3)cc1 (stereo not drawn) ) = 58 to 60 °C

Reported melting point ( `OCCc1ccc(Nc2ncc3c(n2)-c2ccccc2[C@@H](c2ccc(Cl)c(Cl)c2)C3)cc1` ) = 113 to 115 °C

Reported melting point ( CN(CCc1ccc(Nc2ncc3c(n2)-c2ccccc2[C@H](c2cccc(Br)c2)C3)cc1)C1CCCCC1 (as salt: hydrochloride) ) = 167 to 172 °C

Reported melting point ( COCCN1CCN(CCc2ccc(Nc3ncc4c(n3)-c3ccccc3C(c3ccc(Cl)cc3)C4)cc2)CC1 (stereo not drawn) (as salt: hydrochloride) ) = 204 to 214 °C
